# System: Colo357-FG
# TEST_METHOD_NOTES: Cytotoxicity assay (MTS, 72 hours)
# Type: cell-based, human
# MEASUREMENT_CONDITIONS: Table 3, Panc
MEASURED_ATTRIBUTE: IC50 (nM)
# value in nM; strip the unit string

Report IC50 for C[C@H](NC(=O)/C(C#N)=C/c1cccc(Br)n1)c1ccccc1 [WP1066, reference compound]
2000

###

# System: U87MG
# TEST_METHOD_NOTES: Cytotoxicity assay (MTS, 72 hours)
# Assay type: cell-based
# MEASUREMENT_CONDITIONS: Homo sapiens, U-87 MG, Table 3, GBM
MEASURED_ATTRIBUTE: pIC50
Field pIC50 (float): negative decimal logarithm of the concentration in molar.

Please give the documented pIC50 of CCC(CC)(NC(=O)/C(C#N)=C/c1cccc(Cl)n1)c1ccc(OCCOCCN2CCN(C)CC2)cc1
5.74
